Tested on: Dahlen soil
EXPERIMENT SUMMARY: Soil microcosm incubation (nitrification of applied ammonium), Dahlen soil
MEASUREMENT SETUP: Table 4, Dahlen soil pH 7.3, 35° C., day 3; 10 mol %
QUANTITY KIND: Nitrified NH4+—N (%) Day 3
API: value field is a number in %; no unit string.

Examples from the recorded data:
COMPOUND | ASSAY SYSTEM | QUANTITY KIND | UOM | NUMERIC VALUE
CCCCc1cn(CCCC)nn1 | Dahlen soil | Nitrified NH4+—N (%) Day 3 | % | 1.7
CCCc1cn(CCC)nn1 | Dahlen soil | Nitrified NH4+—N (%) Day 3 | % | 1.5

Q) I am curious: what Nitrified NH4+—N (%) Day 3 value has been reported for C#CCCn1cc(CCC)nn1 ?
A) 6.3

Q) I am curious: what Nitrified NH4+—N (%) Day 3 value has been reported for CCCCn1cc(CCC)nn1 ?
A) −1.2

Q) I am curious: what Nitrified NH4+—N (%) Day 3 value has been reported for Cc1c[nH]nc1C.O=P(O)(O)O [DMPP, 3,4-dimethylpyrazole phosphate, reference compound] ?
A) 2.4
